# experimental system: human factor Xa (Homo sapiens, UniProt P00742)
# Sequence (P00742 235-488 limits assumed): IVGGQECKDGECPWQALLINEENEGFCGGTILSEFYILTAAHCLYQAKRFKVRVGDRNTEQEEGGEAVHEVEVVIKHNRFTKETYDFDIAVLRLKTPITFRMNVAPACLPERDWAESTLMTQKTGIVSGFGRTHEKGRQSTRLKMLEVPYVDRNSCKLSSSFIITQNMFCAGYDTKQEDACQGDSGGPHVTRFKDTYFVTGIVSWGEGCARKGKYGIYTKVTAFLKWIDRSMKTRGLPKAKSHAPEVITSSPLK
# Sequence (P00742 41-179 partner limits assumed): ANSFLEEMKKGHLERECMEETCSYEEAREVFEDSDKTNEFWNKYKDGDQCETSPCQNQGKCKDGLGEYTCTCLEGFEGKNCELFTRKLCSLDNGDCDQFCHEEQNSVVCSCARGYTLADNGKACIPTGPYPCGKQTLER
Where a name gives a salt, the structure may show the parent alone.
measurement type: pIC50
Formally, pIC50 is defined as -log10 of the concentration c, with c in mol/L.

Data request: Dear colleague, please send me the reported pIC50 for O=C(NCc1cn(-c2ccc(N3CCOCC3=O)cc2)nc1-c1cccnc1)c1ccc(Cl)s1 [Example 3, hydrochloride] when you can.
Data returned: 9.10
